src = patent EP0754455A1

# Test system: MAO-B (Rattus norvegicus)
# Construct: from tissue; host or cells: Sprague-Dawley rat liver, mitochondrial fraction
# Sequence (P19643 whole entry): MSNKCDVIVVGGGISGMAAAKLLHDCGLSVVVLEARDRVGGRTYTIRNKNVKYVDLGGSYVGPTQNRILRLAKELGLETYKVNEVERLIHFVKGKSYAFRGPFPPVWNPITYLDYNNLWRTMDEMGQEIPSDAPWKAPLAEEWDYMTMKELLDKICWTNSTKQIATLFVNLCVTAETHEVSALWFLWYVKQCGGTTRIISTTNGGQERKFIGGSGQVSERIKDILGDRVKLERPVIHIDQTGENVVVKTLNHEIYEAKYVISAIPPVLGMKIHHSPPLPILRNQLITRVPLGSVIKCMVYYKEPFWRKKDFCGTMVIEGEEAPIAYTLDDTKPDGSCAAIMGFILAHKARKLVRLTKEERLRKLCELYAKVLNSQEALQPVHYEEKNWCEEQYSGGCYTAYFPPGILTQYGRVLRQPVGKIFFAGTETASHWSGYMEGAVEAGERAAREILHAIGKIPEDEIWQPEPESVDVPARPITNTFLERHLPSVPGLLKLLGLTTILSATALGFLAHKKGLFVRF
# Assay summary: Kinetic parameters of suicide-type inhibition, MAO-B (selectivity K1 MAO-A / K1 MAO-B)
# Assay type: biochemical, Sprague-Dawley rat
# Test parameters: selectivity for MAO-B
Quantity kind: K1 MAO-A/K1 MAO-B
Reply: number alone, nothing else.

The cases that follow already have their K1 MAO-A/K1 MAO-B on record.
                                smiles_data  test_value
0  C=C=CCN(CC=C=C)Cc1cc2cc(OCc3ccccc3)ccc2[nH]1       913.6
1        C#CCNCc1cc2cc(OCc3ccccc3)ccc2[nH]1      1066.6
2       CC#CCNCc1cc2cc(OCc3ccccc3)ccc2[nH]1       276.4

stdin: Need K1 MAO-A/K1 MAO-B, item C#CCN(CC#C)Cc1cc2cc(OCc3ccccc3)ccc2n1C
stdout: 873.5

stdin: Another compound: C=C=CCNCc1cc2cc(OCc3ccccc3)ccc2[nH]1
stdout: 63.0

stdin: Another compound: CC#CCN(CC#CC)Cc1cc2cc(OCc3ccccc3)ccc2[nH]1
stdout: 41.5

* * *

# Test system: UniProt:P27338
# Sequence (P27338 whole entry): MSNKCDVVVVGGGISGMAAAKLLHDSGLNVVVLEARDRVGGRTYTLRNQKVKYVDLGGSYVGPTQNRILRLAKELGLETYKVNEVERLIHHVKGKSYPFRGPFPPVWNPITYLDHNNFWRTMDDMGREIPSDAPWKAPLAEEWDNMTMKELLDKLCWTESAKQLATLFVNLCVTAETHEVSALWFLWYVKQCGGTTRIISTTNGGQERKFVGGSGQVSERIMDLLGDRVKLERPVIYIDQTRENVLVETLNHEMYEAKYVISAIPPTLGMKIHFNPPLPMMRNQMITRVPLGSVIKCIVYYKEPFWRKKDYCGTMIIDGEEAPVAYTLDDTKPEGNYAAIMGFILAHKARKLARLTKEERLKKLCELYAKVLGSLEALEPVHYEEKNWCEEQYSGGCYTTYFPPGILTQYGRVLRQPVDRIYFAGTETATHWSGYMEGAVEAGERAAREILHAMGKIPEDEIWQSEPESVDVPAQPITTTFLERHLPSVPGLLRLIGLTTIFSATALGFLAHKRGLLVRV
Quantity kind: IC50 (nM)
Answer format: numeric, nM implied, no suffix.

stdin: Need IC50, item C#CCNCc1cc2cc(OCc3ccccc3)ccc2[nH]1
stdout: 200

* * *

A collection of molecules and their measured K^1cat
# Test system: MAO-A (Rattus norvegicus)
# Construct: human and rat tissue to obtain the isolated forms of monoamine oxidase A and B; from tissue
# Sequence (P21396 whole entry): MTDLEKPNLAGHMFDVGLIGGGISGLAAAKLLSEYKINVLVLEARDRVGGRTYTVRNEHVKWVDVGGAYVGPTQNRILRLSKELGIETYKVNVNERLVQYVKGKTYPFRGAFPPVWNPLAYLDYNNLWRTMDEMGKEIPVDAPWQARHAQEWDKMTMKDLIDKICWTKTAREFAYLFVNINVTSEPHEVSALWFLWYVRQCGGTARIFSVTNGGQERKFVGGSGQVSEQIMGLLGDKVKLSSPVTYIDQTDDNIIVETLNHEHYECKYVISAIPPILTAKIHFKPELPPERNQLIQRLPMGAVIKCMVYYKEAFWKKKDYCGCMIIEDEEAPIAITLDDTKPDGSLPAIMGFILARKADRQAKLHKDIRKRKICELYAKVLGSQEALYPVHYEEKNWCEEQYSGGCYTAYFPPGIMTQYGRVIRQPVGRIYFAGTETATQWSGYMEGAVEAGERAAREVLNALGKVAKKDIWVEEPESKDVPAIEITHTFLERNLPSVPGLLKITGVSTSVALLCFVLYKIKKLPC
# Assay summary: Kinetic parameters of suicide-type inhibition, MAO-A
# Format: biochemical, Sprague-Dawley rat
# Test parameters: MAO-A; velocity constant for formation of the covalent irreversible complex; ± SEM
# Description: Based on the apparent velocity constants of the first order (kapp) obtained for each inhibitor, calculations were made of the K1 and K^1c at (according to the method described by M. Avila et al. 1993, Biochem Pharmac 45, 2231-2237). K1 is the affinity constant of the first stage of the reaction and K1 MAO-A / K1 MAO-B the expression of the selectivity. K^1cat is the velocity constant for the formation of the covalent irreversible complex during the second stage of the process. […]
Answer format: numeric, min⁻¹ implied, no suffix.

The cases that follow already have their K^1cat on record.
In [3]: df
Out[3]:
                                   molecule  quantity_kind  unit_abbrev  test_value
0  CC#CCN(C)Cc1cc2cc(OCc3ccccc3)ccc2[nH]1 [FA-88]         K^1cat        min⁻¹        0.04
1  C=C=CCN(CC=C=C)Cc1cc2cc(OCc3ccccc3)ccc2[nH]1 [FA-78]         K^1cat        min⁻¹         0.2
2  C#CCN(CC#C)Cc1cc2cc(OCc3ccccc3)ccc2n1C [FA-98]         K^1cat        min⁻¹        0.11

With those in mind, consider the next molecule.
stdin: // map CC#CCNCc1cc2cc(OCc3ccccc3)ccc2[nH]1 [FA-74] to recorded K^1cat (system: MAO-A (Rattus norvegicus))
stdout: 0.21

* * *

# Test system: dopamine carrier (Homo sapiens, UniProt Q01959)
# Construct: This assay was carried out in purified synaptosomes of human caudate; from tissue; host or cells: post-mortem human caudate, purified synaptosomes
# Sequence (Q01959 whole entry): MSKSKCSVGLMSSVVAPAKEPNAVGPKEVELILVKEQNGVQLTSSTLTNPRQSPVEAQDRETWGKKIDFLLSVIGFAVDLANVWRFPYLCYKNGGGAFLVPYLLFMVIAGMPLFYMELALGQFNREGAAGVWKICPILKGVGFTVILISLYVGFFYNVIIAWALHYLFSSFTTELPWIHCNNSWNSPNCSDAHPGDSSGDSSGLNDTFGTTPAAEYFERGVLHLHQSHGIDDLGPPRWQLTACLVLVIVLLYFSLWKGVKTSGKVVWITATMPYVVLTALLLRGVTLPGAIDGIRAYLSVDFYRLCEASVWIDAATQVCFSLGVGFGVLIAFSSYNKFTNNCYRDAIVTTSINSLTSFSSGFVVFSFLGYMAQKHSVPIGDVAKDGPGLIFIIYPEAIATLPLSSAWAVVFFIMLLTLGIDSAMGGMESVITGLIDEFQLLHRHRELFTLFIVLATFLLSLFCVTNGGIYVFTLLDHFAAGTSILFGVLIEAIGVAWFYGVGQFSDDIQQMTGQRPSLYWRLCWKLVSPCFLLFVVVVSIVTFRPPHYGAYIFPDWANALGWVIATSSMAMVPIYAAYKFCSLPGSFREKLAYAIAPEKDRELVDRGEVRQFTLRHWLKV
# Assay summary: Dopamine carrier inhibition in purified synaptosomes of human caudate
# Format: biochemical
Quantity kind: pIC50
pIC50 field: float, defined as -log10 of concentration (mol/L).

stdin: Need pIC50, item C#CCN(C)[C@H](C)Cc1ccccc1 [deprenyl, reference compound]
stdout: 7.00
